target_desc: HLA-B*18:01
assay_explanation: IEDB peptide-MHC binding, purified MHC/competitive/radioactivity; filed as Kd, often an IC50 or EC50 that approximates it; bounds were set here for any values at or beyond the usual limits of such assays
test_settings: source organism: Mammarenavirus lassaense
pKd: −log10 of the molar value.
recorded_metric: pKd

>>> experimental_value("REAYCQEFSL")
4.95
>>> experimental_value("REPAGLGSM")
5.09

###

target_desc: HLA-B*15:17
assay_explanation: IEDB peptide-MHC binding, purified MHC/competitive/fluorescence; filed as Kd, often an IC50 or EC50 that approximates it; bounds were set here for any values at or beyond the usual limits of such assays
test_settings: source organism: Orthohantavirus dobravaense
pKd: −log10 of the molar value.
recorded_metric: pKd

>>> experimental_value("MRNTIMASK")
"≤ 4.70"
